TBIL for assorted compounds
- Species on record: Rattus norvegicus
- PROCEDURE_TEXT: Open TG-GATES - Regimen: Daily Repeat
- Type: toxicity, organism-based, Sprague-Dawley
- Design: regimen Daily Repeat, gender Male, age 6 weeks
- TEST_SETTINGS: in vivo, po, 0 mg/kg, […], tissue Plasma, route gavage, dose level Control, time 28 day

COMPOUND: CC(=O)Nc1nnc(S(N)(=O)=O)s1 [ACETAZOLAMIDE]
TBIL, mg/dL: 0.004
--
COMPOUND: Cc1cccc(Nc2ccccc2C(=O)O)c1C
TBIL, mg/dL: 0.2
--
COMPOUND: CN(C)[C@@H]1C(O)=C(C(N)=O)C(=O)[C@@]2(O)C(O)=C3C(=O)c4c(O)cccc4[C@@](C)(O)[C@H]3C[C@@H]12
TBIL, mg/dL: 0.3
--
COMPOUND: CCOC(=O)[C@H](CCc1ccccc1)N[C@@H](C)C(=O)N1CCC[C@H]1C(=O)O
TBIL, mg/dL: 0.3
--
COMPOUND: Clc1c(Cl)c(Cl)c(Cl)c(Cl)c1Cl
TBIL, mg/dL: 0.3
--
COMPOUND: C1CCC(C(CC2CCCCN2)C2CCCCC2)CC1 (stereo not given)
TBIL, mg/dL: 0.008
--
COMPOUND: O=C(O)Cc1ccccc1Nc1c(Cl)cccc1Cl
TBIL, mg/dL: 0.2
--
COMPOUND: CC(CN1c2ccccc2Sc2ccccc21)N(C)C (stereo not given)
TBIL, mg/dL: 0.006
--
COMPOUND: CN1C(C(=O)Nc2ccccn2)=C(O)c2sc(Cl)cc2S1(=O)=O
TBIL, mg/dL: 0.2
--
COMPOUND: C#C[C@]1(O)CC[C@H]2[C@@H]3CCC4=Cc5oncc5C[C@]4(C)[C@H]3CC[C@@]21C
TBIL, mg/dL: 0

---

- Organism: Rattus norvegicus
- PROCEDURE_TEXT: Open TG-GATES - Regimen: Single
- Format: toxicity, organism-based, Sprague-Dawley
- Parameters: regimen Single, gender Male, age 6 weeks
- TEST_SETTINGS: in vivo, po, 0 mg/kg, 24 h, tissue Blood, route gavage, dose level Control
# reported RBC; entries follow
EXPERIMENTAL_ENDPOINT: RBC (x10_4/ul)

COMPOUND: CC(CN1c2ccccc2Sc2ccccc21)N(C)C (stereo not drawn)
NUMERIC_VALUE: 647.6

COMPOUND: C1CCC(C(CC2CCCCN2)C2CCCCC2)CC1 (stereo not drawn)
NUMERIC_VALUE: 604.2

COMPOUND: CN1C(C(=O)Nc2ccccn2)=C(O)c2sc(Cl)cc2S1(=O)=O
NUMERIC_VALUE: 649.4

COMPOUND: C#C[C@]1(O)CC[C@H]2[C@@H]3CCC4=Cc5oncc5C[C@]4(C)[C@H]3CC[C@@]21C
NUMERIC_VALUE: 637.4

COMPOUND: CC(=O)Nc1nnc(S(N)(=O)=O)s1 [ACETAZOLAMIDE]
NUMERIC_VALUE: 616.2

COMPOUND: CCOC(=O)[C@H](CCc1ccccc1)N[C@@H](C)C(=O)N1CCC[C@H]1C(=O)O
NUMERIC_VALUE: 609.4

COMPOUND: Clc1c(Cl)c(Cl)c(Cl)c(Cl)c1Cl
NUMERIC_VALUE: 651.8

COMPOUND: Cc1cccc(Nc2ccccc2C(=O)O)c1C
NUMERIC_VALUE: 599.6

---

- Organism: Rattus norvegicus
- PROCEDURE_TEXT: Open TG-GATES - Regimen: Single
- Assay type: toxicity, organism-based, Sprague-Dawley
- Parameters: regimen Single, gender Male, age 6 weeks
- TEST_SETTINGS: in vivo, po, 0 mg/kg, 6 h, tissue Plasma, route gavage, dose level Control

COMPOUND: Clc1c(Cl)c(Cl)c(Cl)c(Cl)c1Cl [PERCHLOROBENZENE]
K / meq/L: 4.2
--
COMPOUND: CC(=O)Nc1nnc(S(N)(=O)=O)s1 [ACETAZOLAMIDE]
K / meq/L: 4.3
--
COMPOUND: Cc1cccc(Nc2ccccc2C(=O)O)c1C [MEFENAMIC ACID]
K / meq/L: 4.2
--
COMPOUND: C1CCC(C(CC2CCCCN2)C2CCCCC2)CC1 (stereo not given) [PERHEXILINE]
K / meq/L: 4
--
COMPOUND: CCOC(=O)[C@H](CCc1ccccc1)N[C@@H](C)C(=O)N1CCC[C@H]1C(=O)O
K / meq/L: 4.7
--
COMPOUND: CN1C(C(=O)Nc2ccccn2)=C(O)c2sc(Cl)cc2S1(=O)=O [LORNOXICAM]
K / meq/L: 3.9
--
COMPOUND: CC(CN1c2ccccc2Sc2ccccc21)N(C)C (stereo not given) [PROMETHAZINE]
K / meq/L: 4.3
--
COMPOUND: C#C[C@]1(O)CC[C@H]2[C@@H]3CCC4=Cc5oncc5C[C@]4(C)[C@H]3CC[C@@]21C [DANAZOL]
K / meq/L: 4.3
--
COMPOUND: CN(C)[C@@H]1C(O)=C(C(N)=O)C(=O)[C@@]2(O)C(O)=C3C(=O)c4c(O)cccc4[C@@](C)(O)[C@H]3C[C@@H]12 [TETRACYCLINE]
K / meq/L: 5.2
--
COMPOUND: COc1cc([C@@H]2c3cc4c(cc3[C@@H](O[C@@H]3O[C@@H]5CO[C@@H](C)O[C@H]5[C@H](O)[C@H]3O)[C@H]3COC(=O)[C@H]23)OCO4)cc(OC)c1O [ETOPOSIDE]
K / meq/L: 4.8

---

- Species on record: Rattus norvegicus
- PROCEDURE_TEXT: Open TG-GATES - Regimen: Single
- Type: toxicity, organism-based, Sprague-Dawley
- Parameters: regimen Single, gender Male, age 6 weeks
- TEST_SETTINGS: in vivo, po, 0 mg/kg, 3 h, tissue Blood, route gavage, dose level Control

COMPOUND: CC(CN1c2ccccc2Sc2ccccc21)N(C)C (stereo not given) [PROMETHAZINE]
Eos (%): 0.8

COMPOUND: CN(C)[C@@H]1C(O)=C(C(N)=O)C(=O)[C@@]2(O)C(O)=C3C(=O)c4c(O)cccc4[C@@](C)(O)[C@H]3C[C@@H]12 [TETRACYCLINE]
Eos (%): 0.6

COMPOUND: CN1C(C(=O)Nc2ccccn2)=C(O)c2sc(Cl)cc2S1(=O)=O [LORNOXICAM]
Eos (%): 1.4

COMPOUND: CC(=O)Nc1nnc(S(N)(=O)=O)s1 [ACETAZOLAMIDE]
Eos (%): 0.8

COMPOUND: Cc1cccc(Nc2ccccc2C(=O)O)c1C [MEFENAMIC ACID]
Eos (%): 1

COMPOUND: COc1cc([C@@H]2c3cc4c(cc3[C@@H](O[C@@H]3O[C@@H]5CO[C@@H](C)O[C@H]5[C@H](O)[C@H]3O)[C@H]3COC(=O)[C@H]23)OCO4)cc(OC)c1O [ETOPOSIDE]
Eos (%): 1.2

COMPOUND: C#C[C@]1(O)CC[C@H]2[C@@H]3CCC4=Cc5oncc5C[C@]4(C)[C@H]3CC[C@@]21C [DANAZOL]
Eos (%): 1

COMPOUND: CCOC(=O)[C@H](CCc1ccccc1)N[C@@H](C)C(=O)N1CCC[C@H]1C(=O)O
Eos (%): 1

COMPOUND: C1CCC(C(CC2CCCCN2)C2CCCCC2)CC1 (stereo not given) [PERHEXILINE]
Eos (%): 0.6

COMPOUND: Clc1c(Cl)c(Cl)c(Cl)c(Cl)c1Cl [PERCHLOROBENZENE]
Eos (%): 0.8

---

- Species on record: Rattus norvegicus
- PROCEDURE_TEXT: Open TG-GATES - Regimen: Single
- Assay type: toxicity, organism-based, Sprague-Dawley
- Design: regimen Single, gender Male, age 6 weeks
- TEST_SETTINGS: in vivo, po, 0 mg/kg, 24 h, tissue Kidney, route gavage, dose level Control

COMPOUND: CC(CN1c2ccccc2Sc2ccccc21)N(C)C (stereo unspecified) [PROMETHAZINE]
UNIT_LABEL: g
KIDNEY_R: 1
//
COMPOUND: COc1cc([C@@H]2c3cc4c(cc3[C@@H](O[C@@H]3O[C@@H]5CO[C@@H](C)O[C@H]5[C@H](O)[C@H]3O)[C@H]3COC(=O)[C@H]23)OCO4)cc(OC)c1O [ETOPOSIDE]
UNIT_LABEL: g
KIDNEY_R: 1
//
COMPOUND: CN(C)[C@@H]1C(O)=C(C(N)=O)C(=O)[C@@]2(O)C(O)=C3C(=O)c4c(O)cccc4[C@@](C)(O)[C@H]3C[C@@H]12 [TETRACYCLINE]
UNIT_LABEL: g
KIDNEY_R: 0.9
//
COMPOUND: O=[N+]([O-])c1ccc2c(c1)Cc1ccccc1-2 [2-NITROFLUORENE]
UNIT_LABEL: g
KIDNEY_R: 0.9
//
COMPOUND: CN1C(C(=O)Nc2ccccn2)=C(O)c2sc(Cl)cc2S1(=O)=O [LORNOXICAM]
UNIT_LABEL: g
KIDNEY_R: 1
//
COMPOUND: C#C[C@]1(O)CC[C@H]2[C@@H]3CCC4=Cc5oncc5C[C@]4(C)[C@H]3CC[C@@]21C [DANAZOL]
UNIT_LABEL: g
KIDNEY_R: 1
//
COMPOUND: CC(=O)Nc1nnc(S(N)(=O)=O)s1 [ACETAZOLAMIDE]
UNIT_LABEL: g
KIDNEY_R: 1
//
COMPOUND: Cc1cccc(Nc2ccccc2C(=O)O)c1C [MEFENAMIC ACID]
UNIT_LABEL: g
KIDNEY_R: 1
//
COMPOUND: CCOC(=O)[C@H](CCc1ccccc1)N[C@@H](C)C(=O)N1CCC[C@H]1C(=O)O
UNIT_LABEL: g
KIDNEY_R: 1
//
COMPOUND: Clc1c(Cl)c(Cl)c(Cl)c(Cl)c1Cl [PERCHLOROBENZENE]
UNIT_LABEL: g
KIDNEY_R: 1.1
//
COMPOUND: C1CCC(C(CC2CCCCN2)C2CCCCC2)CC1 (stereo unspecified) [PERHEXILINE]
UNIT_LABEL: g
KIDNEY_R: 1
